# pKd annotations
Biological target: T1, DLG3_2, Q92796
T1 sequence (Q92796 221-321, limits assumed, looked up): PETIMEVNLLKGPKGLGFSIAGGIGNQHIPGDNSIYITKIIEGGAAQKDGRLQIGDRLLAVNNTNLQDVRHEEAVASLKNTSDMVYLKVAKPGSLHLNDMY
Experiment: holdup assay
Parameters: key: below the threshold = too weak to quantify, mostly under pKd 3.1 to 4
Details: plain residues with an end cap or a label only (N-terminal biotin on a linker: ttds)
Write the value as a bare number.

Note to self: pKd recorded for PPRQRSETQV [HPV82-E6, Q9IR59] was 4.98
